Data provenance is the supplement of paper PMC4466140.

For each entry below, report its SPOT peptide array binding signal intensity value.
Molecular target: CaLsb1
Experiment: SPOT peptide array binding signal intensity (averaged, normalized) (arbitrary units (background-subtracted, floor 0; scale differs between SH3 domains)); higher = stronger binding of the SH3 domain to the peptide
Enter a number only.

Problem: Look up and report measured SPOT peptide array binding signal intensity for this entry: NTMKKRPAPPSLPSL
Solution: 6

Problem: Look up and report measured SPOT peptide array binding signal intensity for this entry: MAMRPIPPLPTESEY
Solution: 11

Problem: Look up and report measured SPOT peptide array binding signal intensity for this entry: LRWRHKFFLPAIAAI
Solution: 0.25

Problem: Look up and report measured SPOT peptide array binding signal intensity for this entry: GRSRLFPHSPLGRSS
Solution: 1

Problem: Look up and report measured SPOT peptide array binding signal intensity for this entry: NNQRRKPLLLNIGDH
Solution: 0.5

Problem: Look up and report measured SPOT peptide array binding signal intensity for this entry: SKIRPTPRKPSRMAT
Solution: 2.75
